- TARGET DESC: human c-Kit (SPR) (human, UniProt P10721 26-520, limits assumed)
- Sequence (P10721 26-520 limits assumed): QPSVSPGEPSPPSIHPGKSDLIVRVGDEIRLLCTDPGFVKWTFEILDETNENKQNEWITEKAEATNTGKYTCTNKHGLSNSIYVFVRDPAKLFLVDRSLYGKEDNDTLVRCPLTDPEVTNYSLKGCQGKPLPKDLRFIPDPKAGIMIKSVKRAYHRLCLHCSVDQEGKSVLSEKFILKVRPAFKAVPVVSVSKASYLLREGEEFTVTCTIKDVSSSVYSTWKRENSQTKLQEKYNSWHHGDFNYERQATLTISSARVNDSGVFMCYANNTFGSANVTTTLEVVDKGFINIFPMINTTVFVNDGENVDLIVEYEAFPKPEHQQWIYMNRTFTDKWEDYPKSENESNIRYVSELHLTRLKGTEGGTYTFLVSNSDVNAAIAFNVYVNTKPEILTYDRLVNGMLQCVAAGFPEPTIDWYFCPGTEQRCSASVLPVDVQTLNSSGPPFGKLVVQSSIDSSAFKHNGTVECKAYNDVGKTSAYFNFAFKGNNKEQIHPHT
- ASSAY PROCEDURE: SPR, single-cycle kinetics, Human C-kit
OBSERVABLE: Kd (nM)
Report only the number, with the unit nM understood.

GET /values?readout=Kd&item= FJ2156_MH1_A x F6_12B huIgG1 KIH (bispecific antibody, V domains shown, also called MH1_A/F6.12_B) VH 1: EVQLVQSGAEVKKPGASVKVSCKASGYTFTDYYMNWVRQAPGQGLEWMGRIYPGSGNTYYAQKFQDRVTMTRDTSTSTVYMELSSLRSEDTAVYYCARGVYYYDYWGQGTLVTVSS VH 2: QVQLVQSGAEVKKPGESLKISCKGSGYRFASNWIGWVRQMPGKGLQWMGEIYPGDSNTRYSPSFQGQVTISADKSISTAYLQWSSLKASDTAMYYCARKDYYYGIMDVWGQGTTVTVSS VL: DIQMTQSPSSLSASVGDRVTITCRASQGIRTNLAWFQQKPGKAPKSLIYAASSLQSGVPSRFSGSGSGTDFTLTISSLQPEDFATYYCQQYNSYPRTFGGGTKVEIK
82.7

What about MH1_C/F6.12_D bispecific (pI-engineered) (bispecific antibody, V domains shown, Knob-in-hole IgG1null bispecific with human Ckappa) VH 1: QVQLVQSGAEVKEPGASVKVSCKASGYTFTDYYMNWVRQAPGQGLEWMGRIYPGSGNTYYAQNFQGRVTMTRDTSTSTVYMELSSLRSEDTAVYYCARGVYYYDYWGQGTLVTVSS VH 2: QVQLVQSGAEVKKPGESLKISCKGSGYRFASNWIGWVRQMPGKGLEWMGEIYPGDSNTRYSPSFQGQVTISADKSISTAYLQWSRLKASDTAMYYCARKDYYYGIMDVWGQGTTVTVSS VL: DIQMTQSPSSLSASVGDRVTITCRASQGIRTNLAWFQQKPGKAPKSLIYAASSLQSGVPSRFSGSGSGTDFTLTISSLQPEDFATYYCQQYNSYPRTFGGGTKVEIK ?
43

Query FJ2156_MH1_A x F6_12C huIgG1 KIH (bispecific antibody, V domains shown, also called MH1_A/F6.12_C) VH 1: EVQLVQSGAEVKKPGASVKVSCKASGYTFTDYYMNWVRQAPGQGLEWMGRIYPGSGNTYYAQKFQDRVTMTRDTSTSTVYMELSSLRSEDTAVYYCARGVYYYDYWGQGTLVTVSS VH 2: QVQLVQSGAEVKKPGESLKISCKGSGYRFASNWIGWVRQMPGKGLEWMGEIYPGDSNTRYRPSFQGQVTISADKSISTAYLQWSSLKASDTAMYYCARKDYYYGIMDVWGQGTTVTVSS VL: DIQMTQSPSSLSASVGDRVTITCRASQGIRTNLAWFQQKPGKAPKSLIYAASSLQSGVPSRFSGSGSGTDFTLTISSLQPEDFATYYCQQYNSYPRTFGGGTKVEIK next
86.1

Check FJ2156_MH1_C x F6_12B huIgG1 KIH (bispecific antibody, V domains shown, also called MH1_C/F6.12_B) VH 1: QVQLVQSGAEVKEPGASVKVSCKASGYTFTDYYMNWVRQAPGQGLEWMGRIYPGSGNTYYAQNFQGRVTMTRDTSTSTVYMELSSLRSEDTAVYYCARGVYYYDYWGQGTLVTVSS VH 2: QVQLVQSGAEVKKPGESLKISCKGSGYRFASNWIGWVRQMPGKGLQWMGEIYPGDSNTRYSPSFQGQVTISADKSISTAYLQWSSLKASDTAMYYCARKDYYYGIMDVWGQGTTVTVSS VL: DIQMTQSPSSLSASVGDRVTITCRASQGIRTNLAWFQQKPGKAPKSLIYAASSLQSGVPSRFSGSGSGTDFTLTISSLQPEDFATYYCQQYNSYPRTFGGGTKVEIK too.
44.5

Queued: MH1/F6.12 bispecific (parental, before pI engineering) (bispecific antibody, V domains shown, Knob-in-hole IgG1null bispecific with human Ckappa; also called parental bispecific MH1/F6.12) VH 1: QVQLVQSGAEVKKPGASVKVSCKASGYTFTDYYMNWVRQAPGQGLEWMGRIYPGSGNTYYAQKFQGRVTMTRDTSTSTVYMELSSLRSEDTAVYYCARGVYYYDYWGQGTLVTVSS VH 2: EVQLVQSGAEVKKPGESLKISCKGSGYRFASNWIGWVRQMPGKGLEWMGEIYPGDSNTRYSPSFQGQVTISADKSISTAYLQWSSLKASDTAMYYCARKDYYYGIMDVWGQGTTVTVSS VL: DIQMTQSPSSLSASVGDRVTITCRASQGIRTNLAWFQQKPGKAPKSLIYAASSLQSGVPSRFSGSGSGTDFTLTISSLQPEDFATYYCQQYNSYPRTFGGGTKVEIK
45.1

Every entry's value here was drawn from patent US20260028424A1.
